// data source = the Human Domainome abundance scans (Beltran et al. 2025)

The entries below are paired with their reported abundance fitness.
B1: Far upstream element-binding protein 2, residues 142 to 214; numbered along this chain, Q92945 (parent)
chain: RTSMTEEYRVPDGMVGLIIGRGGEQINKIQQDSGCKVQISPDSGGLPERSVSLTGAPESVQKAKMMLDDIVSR

- Variants of: B1
- experiment description: abundance fitness (aPCA) (normalised: wild type 0, dead -1); higher = more abundant; growth selection in yeast, the domain comes from the species named
- measurement setup: Homo sapiens

The examples below pair each entry with its known result.
I26G -0.641
K62Q -0.048
S72D -0.032

q: # query: abundance fitness of entry V60W
a: -1.26

q: # query: abundance fitness of entry P41H
a: 0.035

q: # query: abundance fitness of entry L53E
a: -0.869
